Data origin: the supplement of paper PMC4466140

# TEST SYSTEM: ScSla1-D3
# ASSAY EXPLANATION: SPOT peptide array binding signal intensity (averaged, normalized) (arbitrary units (background-subtracted, floor 0; scale differs between SH3 domains)); higher = stronger binding of the SH3 domain to the peptide
I would appreciate it if you labelled entries Satisfied when SPOT peptide array binding signal intensity is 8 or higher, otherwise Not satisfied.

Answered cases to consult:
INSERT INTO results (binder, classification) VALUES
  ('ALRRRLPVTRSKINW', 'Satisfied'),
  ('EQEEIAPSLPSRNSI', 'Not satisfied');

Determine whether measured SPOT peptide array binding signal intensity meets or exceeds 8 for AIPPPVPNRPGGTTN Not satisfied

Would you mind doing TKIRRRPQQPLTDFT as well? Satisfied

Also TPRLSLPRLPNKHHW ? Not satisfied

Input LFMKGTPEFPKSGFS Satisfied

Same question, NRLRKRLNLPSEISI this time Satisfied

Same question, NLKKRPPTAPQRKIS this time Satisfied

Now the binder AHFQPQRTAPKPPIS Satisfied

Can you check LTRRFPFLFPFDTRM next? Not satisfied

And what about the binder YRRKSIPFAPHQITA ? Not satisfied

Please give the result for GDHPKGPPPPPPPPD too. Not satisfied

Would you mind doing KTITLEVESSDTIDN as well? Satisfied

VQPTAAPATPPRHIS , same question. Not satisfied

Also, FFRRSELYLPNSSKA please. Not satisfied
